# Tested on: MCF7 breast tumour cells
# assay_info: MCF7 proliferation assay
# Format: cell-based, human
# protocol_conditions: Homo sapiens, MCF7, 96 h; 4 days incubation, crystal violet staining
pIC50: −log10 of the molar value.
endpoint_label: pIC50

See these solved cases before continuing.
- CCCS(=O)(=O)N=S(C)c1ccc(Nc2ncc(Br)c(N[C@H](C)C(C)(C)O)n2)cc1 (mixture of isomers): 6.51
- COc1ccc(S(=O)(=O)N=S(C)c2ccc(Nc3ncc(Br)c(N[C@H](C)C(C)(C)O)n3)cc2)cc1 (mixture of isomers): 6.70

[a] C[C@@H](Nc1nc(Nc2ccc(S(C)=NS(=O)(=O)c3ccc(OC(F)(F)F)cc3)cc2)ncc1Br)C(C)(C)O (mixture of isomers)
[b] C[C@@H](Nc1nc(Nc2ccc(S(C)=NS(=O)(=O)C(C)(C)C)cc2)ncc1Br)C(C)(C)O (mixture of isomers)
[c] CC(=O)NCCNc1nc(Nc2ccc(S(C)=NS(=O)(=O)c3ccc(C)cc3)cc2)ncc1Br (racemic)
Put the entries in order of pIC50, starting with the largest number. Form field (ranking): labels in requested order. a, b, c
(a: 6.77, b: 6.48, c: 5.66)
